- Tested on: Abutilon theophrasti (ABUTH)
- method notes: B2 Post-Emergence Efficacy - Test 2
- Format: in vivo
- run parameters: 15 g/Ha, 15 days after application, 0-100 scale
Herbicidal activity ABUTH strictly under 80 means Criterion met; at 80 or over means Criterion not met.

In [3]: df
Out[3]:
                            compound_string              group
0  Cc1nn(C)c(=O)c(-c2c(F)ccc(Cl)c2CCc2ccc(C#N)cc2)c1O  Criterion not met
1  Cc1nn(C)c(=O)c(-c2c(F)ccc(Cl)c2CCc2ccc(F)cc2)c1O      Criterion met
2  Cc1nn(C)c(=O)c(-c2c(F)ccc(Cl)c2CCc2ccc(Cl)cc2)c1OC(=O)C(C)C      Criterion met
3  Cc1nn(C)c(=O)c(-c2c(F)ccc(Cl)c2CCc2ccccc2C(F)(F)F)c1O      Criterion met

====

Listed here are compounds together with their documented Herbicidal activity BRSNN.
- Test system: Brassica napus (BRSNN)
- method notes: B2 Post-Emergence Efficacy - Test 2
- Format: in vivo
- run parameters: 60 g/Ha, 15 days after application, 0-100 scale
- Experimental: Seeds of a variety of test species (see Table B1) were sown in standard soil in pots. […] After application, the test plants were grown in a glasshouse under controlled conditions (as above) and watered twice daily. Herbicidal activity was evaluated 15 days after application on a 0-100 scale. […]
experimental readout: Herbicidal activity BRSNN

                                   compound       experimental_readout  value_reported
0  Cc1nn(C)c(=O)c(-c2c(F)ccc(Cl)c2CCc2ccc(F)cc2)c1OC(=O)C(C)C [Compound 1.125]  Herbicidal activity BRSNN              80
1  Cc1nn(C)c(=O)c(-c2c(F)ccc(Cl)c2CCc2ccc(C(F)(F)F)nc2)c1O [Compound 1.042]  Herbicidal activity BRSNN              90
2  Cc1nn(C)c(=O)c(-c2c(F)ccc(Cl)c2CCc2ccccc2C(F)(F)F)c1O [Compound 1.066]  Herbicidal activity BRSNN              90
3  Cc1nn(C)c(=O)c(-c2c(F)ccc(Cl)c2CCc2ccc(F)cc2)c1O [Compound 1.048]  Herbicidal activity BRSNN              90
4  Cc1nn(C)c(=O)c(-c2c(F)ccc(Cl)c2CCc2ccc(Cl)cc2)c1OC(=O)C(C)C [Compound 1.089]  Herbicidal activity BRSNN              90
5  Cc1nn(C)c(=O)c(-c2c(F)ccc(Cl)c2CCc2ccc(C#N)cc2)c1O [Compound 1.024]  Herbicidal activity BRSNN              90

====

- Test system: Glycine max (GLXMA)
- method notes: B2 Post-Emergence Efficacy - Test 2
- Assay type: in vivo
- run parameters: 250 g/Ha, 15 days after application, 0=no damage, 100=total kill
experimental readout: Herbicidal activity on a 0-100 scale, GLXMA

>>> print(df.to_string())
                            compound_string  value_reported
0  Cc1nn(C)c(=O)c(-c2c(F)ccc(Cl)c2CCc2ccc(F)cc2)c1OC(=O)C(C)C              90
1  Cc1nn(C)c(=O)c(-c2c(F)ccc(Cl)c2CCc2ccc(C#N)cc2)c1O             100
2  Cc1nn(C)c(=O)c(-c2c(F)ccc(Cl)c2CCc2ccc(Cl)cc2)c1OC(=O)C(C)C             100
3  Cc1nn(C)c(=O)c(-c2c(F)ccc(Cl)c2CCc2ccccc2C(F)(F)F)c1O              90
4  Cc1nn(C)c(=O)c(-c2c(F)ccc(Cl)c2CCc2ccc(C(F)(F)F)nc2)c1O             100
5  Cc1nn(C)c(=O)c(-c2c(F)ccc(Cl)c2CCc2ccc(F)cc2)c1O              90

====

Herbicidal activity HORVW values, listed per item
- Tested on: Hordeum vulgare (HORVW)
- method notes: B2 Post-Emergence Efficacy - Test 2
- Type: in vivo
- run parameters: 250 g/Ha, 15 days after application, 0-100 scale
experimental readout: Herbicidal activity HORVW

In [3]: df
Out[3]:
                                   compound       experimental_readout  value_reported
0  Cc1nn(C)c(=O)c(-c2c(F)ccc(Cl)c2CCc2ccc(C#N)cc2)c1O [Compound 1.024]  Herbicidal activity HORVW              10
1  Cc1nn(C)c(=O)c(-c2c(F)ccc(Cl)c2CCc2ccccc2C(F)(F)F)c1O [Compound 1.066]  Herbicidal activity HORVW              80
2  Cc1nn(C)c(=O)c(-c2c(F)ccc(Cl)c2CCc2ccc(Cl)cc2)c1OC(=O)C(C)C [Compound 1.089]  Herbicidal activity HORVW              30
3  Cc1nn(C)c(=O)c(-c2c(F)ccc(Cl)c2CCc2ccc(C(F)(F)F)nc2)c1O [Compound 1.042]  Herbicidal activity HORVW              80
4  Cc1nn(C)c(=O)c(-c2c(F)ccc(Cl)c2CCc2ccc(F)cc2)c1OC(=O)C(C)C [Compound 1.125]  Herbicidal activity HORVW              10
5  Cc1nn(C)c(=O)c(-c2c(F)ccc(Cl)c2CCc2ccc(F)cc2)c1O [Compound 1.048]  Herbicidal activity HORVW              40

====

- Tested on: Echinochloa crus galli (ECHCG)
- method notes: B2 Post-Emergence Efficacy - Test 2
- Type: in vivo
- run parameters: 500 g/Ha, 15 days after application, 0=no damage, 100=total kill
experimental readout: Herbicidal activity on a 0-100 scale, ECHCG

>>> df
                                   compound  value_reported
0  Cc1nn(C)c(=O)c(-c2c(F)ccc(Cl)c2CCc2ccc(F)cc2)c1O [Compound 1.048]             100
1  Cc1nn(C)c(=O)c(-c2c(F)ccc(Cl)c2CCc2ccc(C(F)(F)F)nc2)c1O [Compound 1.042]             100
2  Cc1nn(C)c(=O)c(-c2c(F)ccc(Cl)c2CCc2ccc(F)cc2)c1OC(=O)C(C)C [Compound 1.125]             100
3  Cc1nn(C)c(=O)c(-c2c(F)ccc(Cl)c2CCc2ccccc2C(F)(F)F)c1O [Compound 1.066]              90
4  Cc1nn(C)c(=O)c(-c2c(F)ccc(Cl)c2CCc2ccc(Cl)cc2)c1OC(=O)C(C)C [Compound 1.089]             100
5  Cc1nn(C)c(=O)c(-c2c(F)ccc(Cl)c2CCc2ccc(C#N)cc2)c1O [Compound 1.024]             100

====

- Tested on: Chenopodium album (CHEAL)
- method notes: B2 Post-Emergence Efficacy - Test 2
- Type: in vivo
- run parameters: 250 g/Ha, 15 days after application, 0-100 scale
experimental readout: Herbicidal activity CHEAL

In [3]: df
Out[3]:
                                   compound  value_reported
0  Cc1nn(C)c(=O)c(-c2c(F)ccc(Cl)c2CCc2ccc(F)cc2)c1OC(=O)C(C)C [Compound 1.125]              90
1  Cc1nn(C)c(=O)c(-c2c(F)ccc(Cl)c2CCc2ccc(C#N)cc2)c1O [Compound 1.024]              90
2  Cc1nn(C)c(=O)c(-c2c(F)ccc(Cl)c2CCc2ccccc2C(F)(F)F)c1O [Compound 1.066]             100
3  Cc1nn(C)c(=O)c(-c2c(F)ccc(Cl)c2CCc2ccc(F)cc2)c1O [Compound 1.048]              90
4  Cc1nn(C)c(=O)c(-c2c(F)ccc(Cl)c2CCc2ccc(C(F)(F)F)nc2)c1O [Compound 1.042]             100
5  Cc1nn(C)c(=O)c(-c2c(F)ccc(Cl)c2CCc2ccc(Cl)cc2)c1OC(=O)C(C)C [Compound 1.089]             100

====

Recorded Herbicidal activity BEAVA values for a group of molecules are listed next.
- Tested on: Beta vulgaris (BEAVA)
- method notes: B2 Post-Emergence Efficacy - Test 2
- Type: in vivo
- run parameters: 500 g/Ha, 15 days after application, 0-100 scale
experimental readout: Herbicidal activity BEAVA

>>> print(df.to_string())
                            compound_string       experimental_readout  value_reported
0  Cc1nn(C)c(=O)c(-c2c(F)ccc(Cl)c2CCc2ccc(C#N)cc2)c1O  Herbicidal activity BEAVA             100
1  Cc1nn(C)c(=O)c(-c2c(F)ccc(Cl)c2CCc2ccc(C(F)(F)F)nc2)c1O  Herbicidal activity BEAVA              90
2  Cc1nn(C)c(=O)c(-c2c(F)ccc(Cl)c2CCc2ccc(F)cc2)c1O  Herbicidal activity BEAVA              90
3  Cc1nn(C)c(=O)c(-c2c(F)ccc(Cl)c2CCc2ccc(Cl)cc2)c1OC(=O)C(C)C  Herbicidal activity BEAVA              90
4  Cc1nn(C)c(=O)c(-c2c(F)ccc(Cl)c2CCc2ccc(F)cc2)c1OC(=O)C(C)C  Herbicidal activity BEAVA              70
5  Cc1nn(C)c(=O)c(-c2c(F)ccc(Cl)c2CCc2ccccc2C(F)(F)F)c1O  Herbicidal activity BEAVA              90
